system: LOX IMVI melanoma; assay: NCI tumour cell line growth inhibition, 48 h; in the data active means GI50 below about 0.43 µM; inactive means the rest
Field 'call' accepts label 1 = active, label 0 = inactive

molecule	classLabel
COc1ccc2c(c1)nc(N)c1c3cccnc3cn21	label 1
CCCCC[C@H]1C/C=C2/C(=O)C(Cl)=C[C@@H]2C/C=C\CCCC(=O)O[C@@H](CCCCC)C/C=C2/C(=O)C(Cl)=C[C@@H]2C/C=C\CCCC(=O)O1	label 1
N#CC1C(N)=NNC12Nc1ccccc1N2 (stereo not given)	label 0

Can you look up the reported call for Nc1nc(Nc2cccc(F)c2)nc2ccccc12 for me?
label 0

Can you look up the reported call for CCc1c2c(nc3cccc(N)c13)-c1cc3c(c(=O)n1C2)COC(=O)[C@]3(O)CC for me?
label 1
